Source: the Biogen ADME set (Fang et al. 2023)

measure: intrinsic clearance, human liver microsomes (mL/min/kg)

[[record]]
mol_smiles = "Cc1cc(C)cc(Oc2cc(C#N)ccn2)c1"
value_units = "mL/min/kg"
bound_operator = "="
value_measured = 48

[[record]]
mol_smiles = "Cc1ccc(-c2nc(-c3ccncc3)n[nH]2)cc1"
value_units = "mL/min/kg"
bound_operator = "="
value_measured = 26.9

[[record]]
mol_smiles = "O=C(Cn1c(-c2ccc(F)cc2)nc2ccccc21)N1CCOCC1"
value_units = "mL/min/kg"
bound_operator = "≤"
value_measured = 4.74

[[record]]
mol_smiles = "Cc1n[nH]c(C)c1Cc1ccc(NCCC(C)C)cc1"
value_units = "mL/min/kg"
bound_operator = "≤"
value_measured = 4.74


----------
The recorded MDR1-MDCK efflux ratio of each item maps onto one of these classes: group A (below 0.8), group B (0.8 to below 5), group C (5 or more)

[[record]]
mol_smiles = "COc1ncccc1CNc1ncnc2c1cnn2C"
assigned_class = "group B"

[[record]]
mol_smiles = "COCC1(CNC(=O)c2ccc(-n3cccn3)cc2)CCC1"
assigned_class = "group A"

[[record]]
mol_smiles = "CN(C)S(=O)(=O)Nc1ccc(-n2ncc3ccccc32)cc1"
assigned_class = "group A"

[[record]]
mol_smiles = "Cc1cnn(CC(=O)NCCCn2cc(Cl)cn2)c1"
assigned_class = "group B"

[[record]]
mol_smiles = "CC(=O)N1CCCN(C(=O)Cc2csc(C(C)C)n2)CC1"
assigned_class = "group C"

[[record]]
mol_smiles = "Cc1ccc(C(=O)COC(=O)c2cc(O)nc3ccccc23)cc1"
assigned_class = "group A"

[[record]]
mol_smiles = "CC(=O)N[C@H]1CCN(C(=O)N[C@H](C)C(c2ccccc2)c2ccccc2)C1"
assigned_class = "group C"

[[record]]
mol_smiles = "Cc1ccsc1-c1nsc(NC(=O)CN(C)C)n1"
assigned_class = "group B"

[[record]]
mol_smiles = "O=c1c2cccnc2ncn1[C@H]1CCCc2ccccc21"
assigned_class = "group B"

[[record]]
mol_smiles = "O=C(Cc1ccccc1F)N1CCN(c2nccn3nc4c(c23)CCCC4)CC1"
assigned_class = "group B"

[[record]]
mol_smiles = "CCc1cnccc1C(=O)Nc1cnccn1"
assigned_class = "group A"

[[record]]
mol_smiles = "CC(C)Oc1ccc(CCNC(=O)N2CCC[C@H]2C(=O)N2CCCCC2)cc1"
assigned_class = "group C"

[[record]]
mol_smiles = "CCOC(=O)CNC(=O)c1ccc(O)cc1O"
assigned_class = "group A"

[[record]]
mol_smiles = "Cc1sc2nc(CN3CCC(C)CC3)nc(N3CCN(c4cnccn4)CC3)c2c1C"
assigned_class = "group C"

[[record]]
mol_smiles = "CC(C)N(C)S(=O)(=O)N1CCC(CNC(=O)CCCn2cccn2)CC1"
assigned_class = "group C"


----------
Reported aqueous solubility values for the following compounds.
Settings: pH 6.8
measure: aqueous solubility (µg/mL)

[[record]]
compound = "CCCC(=O)Nc1ccc(C)c2ncccc12"
measure = "aqueous solubility"
value_units = "µg/mL"
value_measured = 50.2

[[record]]
compound = "COc1ccc(CNC(=O)CCCOc2ccc(C(C)=O)cc2)cc1"
measure = "aqueous solubility"
value_units = "µg/mL"
value_measured = 20.2

[[record]]
compound = "CNC(=O)c1cnc(/C=C/c2csc(-c3cccs3)n2)s1"
measure = "aqueous solubility"
value_units = "µg/mL"
value_measured = 8.88

[[record]]
compound = "Cc1sc2ncnc(OCC(=O)Nc3ccc4c(c3)OCO4)c2c1C"
measure = "aqueous solubility"
value_units = "µg/mL"
value_measured = 0.26

[[record]]
compound = "Cc1cn[nH]c1C1(C)CCN(Cc2cnn(C)c2)CC1"
measure = "aqueous solubility"
value_units = "µg/mL"
value_measured = 28.4

[[record]]
compound = "CN1[C@@H]2CC[C@H]1C[C@H](OC(c1ccccc1)c1ccccc1)C2"
measure = "aqueous solubility"
value_units = "µg/mL"
value_measured = 52.1

[[record]]
compound = "CN(C)C(=O)c1sc2nc(C3(C)CCN(c4ncccn4)CC3)ccc2c1N"
measure = "aqueous solubility"
value_units = "µg/mL"
value_measured = 65.8

[[record]]
compound = "CN(CC(=O)NC1(C#N)CCCC1)c1ccccc1"
measure = "aqueous solubility"
value_units = "µg/mL"
value_measured = 46.5

[[record]]
compound = "CC1(c2ccn[nH]2)CCN(Cc2ccco2)CC1"
measure = "aqueous solubility"
value_units = "µg/mL"
value_measured = 21

[[record]]
compound = "CCCN1CCCN(C(=O)c2nc3ccccc3[nH]2)CC1"
measure = "aqueous solubility"
value_units = "µg/mL"
value_measured = 49.4

[[record]]
compound = "Fc1ccc2[nH]c(CO[C@H]3CN(Cc4ccccc4)C[C@H]3F)nc2c1"
measure = "aqueous solubility"
value_units = "µg/mL"
value_measured = 35.4

[[record]]
compound = "Cc1cc(NC(=O)CN(C)c2c(F)cccc2F)on1"
measure = "aqueous solubility"
value_units = "µg/mL"
value_measured = 69.4

[[record]]
compound = "CCN(Cc1nc2cc(Cl)ccc2c(=O)[nH]1)C(=O)COc1ccccc1Cc1ccccc1"
measure = "aqueous solubility"
value_units = "µg/mL"
value_measured = 1.22

[[record]]
compound = "Cn1cc(CN2CCN(c3ccccc3O)CC2)c(-c2ccncc2)n1"
measure = "aqueous solubility"
value_units = "µg/mL"
value_measured = 33.2

[[record]]
compound = "Cn1cc(-c2nc(C(F)(F)F)c[nH]2)cn1"
measure = "aqueous solubility"
value_units = "µg/mL"
value_measured = 40.2

[[record]]
compound = "Cc1ccnc(NC(=O)CN(C)C(=O)c2ccc(Cl)cc2)c1"
measure = "aqueous solubility"
value_units = "µg/mL"
value_measured = 63.3

[[record]]
compound = "Cc1nc2ccccn2c1CC(=O)NCCCSc1ccccc1"
measure = "aqueous solubility"
value_units = "µg/mL"
value_measured = 42.3

[[record]]
compound = "O=C(CSc1nnc(-c2cccs2)[nH]1)N1CCCCCC1"
measure = "aqueous solubility"
value_units = "µg/mL"
value_measured = 27.6

[[record]]
compound = "CCn1cc(NC(=O)c2ccccc2C)cn1"
measure = "aqueous solubility"
value_units = "µg/mL"
value_measured = 32.2

[[record]]
compound = "CC(=O)N1CCN(C(=O)c2ccc(-c3ccc(F)cc3)cc2F)CC1"
measure = "aqueous solubility"
value_units = "µg/mL"
value_measured = 74.5

[[record]]
compound = "Cc1ccc(NC(=O)C(C)(C)c2ccccc2)nc1"
measure = "aqueous solubility"
value_units = "µg/mL"
value_measured = 30.6

[[record]]
compound = "O=C(CN1CCCC(c2nc3ccccc3o2)C1)Nc1ccc(OC(F)(F)F)cc1 (stereo not given)"
measure = "aqueous solubility"
value_units = "µg/mL"
value_measured = 6.85

[[record]]
compound = "O=C(Nc1ccc2ccccc2n1)c1ccc(N2CCOC2=O)cc1"
measure = "aqueous solubility"
value_units = "µg/mL"
value_measured = 2.85

[[record]]
compound = "Cc1cccc2cc(C(=O)NCCSc3nccn3C)n(C)c12"
measure = "aqueous solubility"
value_units = "µg/mL"
value_measured = 33.5

[[record]]
compound = "CCCCOc1ccccc1-c1cc(C(=O)NCCc2cccs2)[nH]n1"
measure = "aqueous solubility"
value_units = "µg/mL"
value_measured = 0.37

[[record]]
compound = "COc1cc(OCc2ccccn2)ccc1/C=C/c1cc(/C=C/c2ccc3cc[nH]c3c2)[nH]n1"
measure = "aqueous solubility"
value_units = "µg/mL"
value_measured = 0.61

[[record]]
compound = "O=C(Nc1ccc2c3c(cccc13)CC2)c1ccc(-n2cncn2)cc1"
measure = "aqueous solubility"
value_units = "µg/mL"
value_measured = 0.18

[[record]]
compound = "CCOC(=O)N1CCC(Nc2nc3ccccc3s2)CC1"
measure = "aqueous solubility"
value_units = "µg/mL"
value_measured = 49.2

[[record]]
compound = "O=C(c1ccc(F)c(F)c1)N1CCN(C(=O)c2nc(Cl)ccc2Cl)CC1"
measure = "aqueous solubility"
value_units = "µg/mL"
value_measured = 61.7

[[record]]
compound = "COCCOc1ccc2c(c1)ncn2-c1ccc2cccc(N3CCC(N)CC3)c2n1"
measure = "aqueous solubility"
value_units = "µg/mL"
value_measured = 30.4

[[record]]
compound = "Cc1nc(CC2CCN(S(=O)(=O)c3cn(C)cn3)CC2)cc(NC2CCCC2)n1"
measure = "aqueous solubility"
value_units = "µg/mL"
value_measured = 59.5

[[record]]
compound = "O=C1CCC(=O)N1CCN1CCCCc2ccccc21"
measure = "aqueous solubility"
value_units = "µg/mL"
value_measured = 55.8

[[record]]
compound = "N#CCCN(c1ncnc2sccc12)C1CC1"
measure = "aqueous solubility"
value_units = "µg/mL"
value_measured = 39.8

[[record]]
compound = "Cc1ccc(CNC(=O)CN2CCC(n3nnc4cc(C(F)(F)F)ccc43)CC2)cc1"
measure = "aqueous solubility"
value_units = "µg/mL"
value_measured = 11.5

[[record]]
compound = "Cc1nn(C)c2sc(C(=O)N3CCC(C(=O)O)(c4ccccc4)CC3)cc12"
measure = "aqueous solubility"
value_units = "µg/mL"
value_measured = 73.7

[[record]]
compound = "CC(C(=O)Nc1ccccc1)N1CCCC(c2nc3ccccc3o2)C1 (stereo not given)"
measure = "aqueous solubility"
value_units = "µg/mL"
value_measured = 26.9

[[record]]
compound = "Cc1ccc(NC(=O)CN2CCCC(c3nc4ccccc4o3)C2)cc1C (stereo not given)"
measure = "aqueous solubility"
value_units = "µg/mL"
value_measured = 10

[[record]]
compound = "O=C(/C=C/c1ccc(Cl)cc1)N1CCC2(CC1)CN(Cc1ccc(Cl)c(Cl)c1)C(=O)O2"
measure = "aqueous solubility"
value_units = "µg/mL"
value_measured = 2.15

[[record]]
compound = "CC(C)(C)c1csc(NC(=O)C2CC2)n1"
measure = "aqueous solubility"
value_units = "µg/mL"
value_measured = 29.2

[[record]]
compound = "O=C(c1cccs1)N1C[C@@H]2CCCN(C(=O)c3cccs3)[C@@H]2C1"
measure = "aqueous solubility"
value_units = "µg/mL"
value_measured = 63.1

